This section presents compounds with their documented IC50 values.
Biological target: α5β1 integrin (Homo sapiens, UniProt P05556+P08648)
Sequence (P08648 42-894 limits assumed): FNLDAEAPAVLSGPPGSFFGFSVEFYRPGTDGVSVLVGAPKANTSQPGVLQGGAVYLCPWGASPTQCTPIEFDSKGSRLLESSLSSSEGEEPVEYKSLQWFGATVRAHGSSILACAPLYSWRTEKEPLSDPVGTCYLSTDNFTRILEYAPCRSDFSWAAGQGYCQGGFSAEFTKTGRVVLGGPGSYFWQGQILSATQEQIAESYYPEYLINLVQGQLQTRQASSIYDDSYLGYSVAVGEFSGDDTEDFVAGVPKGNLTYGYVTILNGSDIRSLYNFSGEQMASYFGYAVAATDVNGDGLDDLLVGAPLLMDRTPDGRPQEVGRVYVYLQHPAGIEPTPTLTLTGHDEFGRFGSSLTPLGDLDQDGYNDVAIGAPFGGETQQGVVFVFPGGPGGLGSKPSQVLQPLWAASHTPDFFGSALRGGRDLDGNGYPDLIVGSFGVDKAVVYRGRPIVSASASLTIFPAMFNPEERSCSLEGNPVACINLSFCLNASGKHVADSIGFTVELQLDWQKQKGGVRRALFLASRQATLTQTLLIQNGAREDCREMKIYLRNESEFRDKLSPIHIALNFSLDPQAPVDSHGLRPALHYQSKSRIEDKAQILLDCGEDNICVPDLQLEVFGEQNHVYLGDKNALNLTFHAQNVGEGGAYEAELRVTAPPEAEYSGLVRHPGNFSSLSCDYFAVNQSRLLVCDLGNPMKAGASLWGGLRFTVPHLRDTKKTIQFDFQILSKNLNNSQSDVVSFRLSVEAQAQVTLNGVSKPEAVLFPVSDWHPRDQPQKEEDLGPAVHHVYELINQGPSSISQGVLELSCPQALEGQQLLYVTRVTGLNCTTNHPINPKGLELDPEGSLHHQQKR
Sequence (P08648 895-1049 partner limits assumed): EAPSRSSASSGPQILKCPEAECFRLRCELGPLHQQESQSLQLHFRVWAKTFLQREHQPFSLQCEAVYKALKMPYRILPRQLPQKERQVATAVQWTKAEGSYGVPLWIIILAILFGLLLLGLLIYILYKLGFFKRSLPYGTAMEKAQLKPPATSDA
Sequence (P05556 21-798): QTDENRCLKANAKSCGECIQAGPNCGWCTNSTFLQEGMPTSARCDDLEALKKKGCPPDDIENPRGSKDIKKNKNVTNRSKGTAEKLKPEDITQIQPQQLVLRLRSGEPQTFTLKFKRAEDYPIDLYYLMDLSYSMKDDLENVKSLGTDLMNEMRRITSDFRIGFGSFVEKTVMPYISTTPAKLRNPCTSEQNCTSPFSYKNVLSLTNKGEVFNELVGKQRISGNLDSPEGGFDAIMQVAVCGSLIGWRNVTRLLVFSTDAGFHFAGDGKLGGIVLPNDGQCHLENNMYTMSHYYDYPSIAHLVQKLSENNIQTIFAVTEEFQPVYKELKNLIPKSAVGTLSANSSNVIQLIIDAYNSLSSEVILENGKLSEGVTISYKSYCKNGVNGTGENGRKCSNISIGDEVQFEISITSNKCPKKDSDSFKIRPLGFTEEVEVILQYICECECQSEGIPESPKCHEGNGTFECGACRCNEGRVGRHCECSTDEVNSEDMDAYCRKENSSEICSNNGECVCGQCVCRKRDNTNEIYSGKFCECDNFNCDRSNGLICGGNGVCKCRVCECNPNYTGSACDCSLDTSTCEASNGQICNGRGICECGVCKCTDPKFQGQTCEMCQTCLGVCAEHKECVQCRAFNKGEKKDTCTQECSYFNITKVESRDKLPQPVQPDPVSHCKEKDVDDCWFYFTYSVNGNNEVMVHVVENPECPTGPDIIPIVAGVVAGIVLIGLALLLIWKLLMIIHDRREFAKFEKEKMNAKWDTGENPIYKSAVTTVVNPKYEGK
Experiment: In vitro binding assay: inhibition of binding of α5β1 integrin to fibronectin fragment Fn9-10 (Origen electrochemiluminescence)
Details: human a5b1 purified from placenta; biotinylated Fn9-10 ligand
Enter your answer as a number in µM; do not include the unit.

CS(=O)(=O)N1CC=C(c2ccc(C[C@H](NC(=O)c3c(Cl)cccc3Cl)C(=O)O)nc2)CC1 24.7
O=C(N[C@@H](Cc1ccc(C2=CCN(C(=O)c3cccc(F)c3)CC2)cn1)C(=O)O)c1c(Cl)cccc1Cl 7.2
CCCS(=O)(=O)N1CC=C(c2ccc(C[C@H](NC(=O)c3c(Cl)cccc3Cl)C(=O)O)nc2)CC1 13.9

Proceed to the following item.
*Q* // query IC50 value for entry `O=C(N[C@@H](Cc1ccc(C2=CCN(Cc3ccc(F)cc3)CC2)cn1)C(=O)O)c1c(Cl)cccc1Cl`
*A* 6
